# protocol details: Evaluation of conversion rate to active form in buffer solution (Experimental Example 1)
# Format: physicochemical
# condition set: pH6.5, 0.5 hr
property label: Production rate of Alvocidib (%)

Example entries begin here.
>  <compound>
C[C@H](N)C(=O)O[C@@H]1CN(C)CC[C@@H]1c1c(O)cc(O)c2c(=O)cc(-c3ccccc3Cl)oc12 [Comparative Example 7, reference compound]

>  <unit annotation>
%

>  <numeric value>
34.7

$$$$
>  <compound>
CC(C)[C@H](N)C(=O)O[C@@H]1CN(C)CC[C@@H]1c1c(O)cc(O)c2c(=O)cc(-c3ccccc3Cl)oc12 [Comparative Example 10, reference compound]

>  <unit annotation>
%

>  <numeric value>
5.1

$$$$
>  <compound>
CN1CC[C@H](c2c(O)cc(O)c3c(=O)cc(-c4ccccc4Cl)oc23)[C@H](OC(=O)[C@@H](N)CO)C1 [Comparative Example 9, reference compound]

>  <unit annotation>
%

>  <numeric value>
20.9

$$$$

[1] CCNC(=O)O[C@@H]1CN(C)CC[C@@H]1c1c(O)cc(O)c2c(=O)cc(-c3ccccc3Cl)oc12 [Comparative Example 4, reference compound]
[2] CCOC(=O)O[C@@H]1CN(C)CC[C@@H]1c1c(O)cc(O)c2c(=O)cc(-c3ccccc3Cl)oc12 [Comparative Example 3, reference compound]
Choose between 1 and 2 : whose measured Production rate of Alvocidib value is numerically larger? To answer, give the label that identifies your chosen option.
1
(1: 1.8%, 2: 1.1%)

---

# protocol details: Evaluation of conversion rate to active form in buffer solution (Experimental Example 1)
# Format: physicochemical
# condition set: pH7.0, 1 hr
# Description: For Examples 1 to 16 and Comparative Examples 1 to 14, the attrition rate of the test compound and the conversion rate of the test compound to Alvocidib in a buffer solution were calculated by the following method. Examples 1 to 16 and Comparative Examples 1 to 14 were each left in buffer solutions adjusted to pH 5.0, 5.5, 6.0, 6.5, 7.0 and 7.4, respectively, at a concentration of 25 umol/L at 37° C. […]
property label: Residual rate (%)

>  <compound>
CNC(=O)Oc1cc(O)c2c(=O)cc(-c3ccccc3Cl)oc2c1[C@H]1CCN(C)C[C@H]1O [Comparative Example 2, reference compound]

>  <Residual rate, %>
0.0

$$$$

[A] CC(C)[C@H](N)C(=O)O[C@@H]1CN(C)CC[C@@H]1c1c(O)cc(O)c2c(=O)cc(-c3ccccc3Cl)oc12 [Comparative Example 10, reference compound]
[B] CN1CC[C@H](c2c(O)cc(O)c3c(=O)cc(-c4ccccc4Cl)oc23)[C@H](OC(=O)CN)C1 [Comparative Example 8, reference compound]
Choose between A and B : whose measured Residual rate value is numerically larger? To answer, give the label that identifies your chosen option.
A

---

# protocol details: Evaluation of conversion rate to active form in buffer solution (Experimental Example 1)
# Type: physicochemical
# condition set: pH6.5, 2 hr, 37° C., 25 umol/L in buffer solution
Counter-ions that a name gives are not always drawn.
property label: Residual rate (%)
Quick reminder: number only, in %, skip the unit.

>  <compound>
CN1CC[C@H](c2c(OC(=O)N(CCC(F)(F)F)CC3CCCCN3)cc(O)c3c(=O)cc(-c4ccccc4Cl)oc23)[C@H](O)C1 (some centres unmarked) [Example 13]

>  <numeric value>
9.9

$$$$
>  <compound>
CN1CC[C@H](c2c(OC(=O)N(CCCC(F)(F)F)CC3CCCCN3)cc(O)c3c(=O)cc(-c4ccccc4Cl)oc23)[C@H](O)C1 (some centres unmarked) [Example 14]

>  <numeric value>
14.0

$$$$
>  <compound>
CCN(CC1CCCCN1)C(=O)Oc1cc(O)c2c(=O)cc(-c3ccccc3Cl)oc2c1[C@H]1CCN(C)C[C@H]1O (some centres unmarked) [Example 7, dihydrochloride]

>  <numeric value>
73.2

$$$$
>  <compound>
CCCN(C[C@@H]1CCCCN1)C(=O)Oc1cc(O)c2c(=O)cc(-c3ccccc3Cl)oc2c1[C@H]1CCN(C)C[C@H]1O [Example 5]

>  <numeric value>
65.5

$$$$
>  <compound>
CCN(CCC1CCCCN1)C(=O)Oc1cc(O)c2c(=O)cc(-c3ccccc3Cl)oc2c1[C@H]1CCN(C)C[C@H]1O (some centres unmarked) [Example 16]

>  <numeric value>
37.4

$$$$
>  <compound>
CC(C)N(CC1CCCCN1)C(=O)Oc1cc(O)c2c(=O)cc(-c3ccccc3Cl)oc2c1[C@H]1CCN(C)C[C@H]1O (some centres unmarked) [Example 10]

>  <numeric value>
59.6

$$$$
>  <compound>
CN1CC[C@H](c2c(OC(=O)N(C)C[C@H]3CCCCN3)cc(O)c3c(=O)cc(-c4ccccc4Cl)oc23)[C@H](O)C1 [Example 4]

>  <numeric value>
39.7

$$$$
>  <compound>
CN1CC[C@H](c2c(OC(=O)N(Cc3ccccc3)CC3CCCCN3)cc(O)c3c(=O)cc(-c4ccccc4Cl)oc23)[C@H](O)C1 (some centres unmarked) [Example 15]

>  <numeric value>
32.9

$$$$
>  <compound>
CCN(C[C@H]1CCCCN1)C(=O)Oc1cc(O)c2c(=O)cc(-c3ccccc3Cl)oc2c1[C@H]1CCN(C)C[C@H]1O [Example 2]

>  <numeric value>
57.4

$$$$
>  <compound>
COCCN(CC1CCCCN1)C(=O)Oc1cc(O)c2c(=O)cc(-c3ccccc3Cl)oc2c1[C@H]1CCN(C)C[C@H]1O (some centres unmarked) [Example 12]

>  <numeric value>
26.2

$$$$

Now take the following compound into account.
Residual rate reported for this compound CN1CC[C@H](c2c(OC(=O)N(C)CC3CCCCN3)cc(O)c3c(=O)cc(-c4ccccc4Cl)oc23)[C@H](O)C1 (some centres unmarked) [Example 8] : 71.2
